The values you see were collected from the supplement of paper PMC10065799.

- testedSystem: Grb2 SH2 (UniProt P62993)
- Sequence (P62993 whole entry, looked up): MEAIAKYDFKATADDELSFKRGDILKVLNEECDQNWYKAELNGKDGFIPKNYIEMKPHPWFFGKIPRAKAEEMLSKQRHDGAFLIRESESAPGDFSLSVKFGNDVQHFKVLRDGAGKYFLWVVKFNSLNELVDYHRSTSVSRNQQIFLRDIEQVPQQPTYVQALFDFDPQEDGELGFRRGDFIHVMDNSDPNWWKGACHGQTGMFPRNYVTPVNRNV
- assayComment: SH2 binding enrichment of the phosphorylated peptide, bacterial display (enrichment ratio); higher = better substrate or ligand; peptides without Tyr show the background
Classification scheme (SH2 binding enrichment): low = under 0.8, middle = from 0.8 up to 1, high = 1 and over

{"sequenceRecord": "ISIFHYAKGQP [MPZ_Y82]", "cat": "middle"}
{"sequenceRecord": "IVTLKYPIEHG [ACTB_Y69_L65V]", "cat": "low"}
{"sequenceRecord": "RGRSTYYWPSP [GAGE12J_Y9_R13S]", "cat": "low"}
{"sequenceRecord": "EDEGLYMVRVP [MYOM3_Y343]", "cat": "low"}
{"sequenceRecord": "LEEFQYIGESQ [MSH2_Y856]", "cat": "middle"}

Please indicate the class for RHFTGYRIELQ [INSR_Y818] based on its SH2 binding enrichment.
high

====

- testedSystem: Grb2 SH2 (UniProt P62993)
- assayComment: SH2 binding enrichment of the phosphorylated peptide, bacterial display (enrichment ratio); higher = better substrate or ligand; peptides without Tyr show the background
endpoint: SH2 binding enrichment
Would you mind answering with just the numeric figure?

{"sequenceRecord": "CTNPQYLAAGS [RABL3_Y185_R184Q]", "SH2 binding enrichment": 0.885}
{"sequenceRecord": "KNNDGYTDYAE [MCFD2_Y135_I136T]", "SH2 binding enrichment": 0.766}
{"sequenceRecord": "VRFMEYETQVK [TARDBP_Y155_T153M]", "SH2 binding enrichment": 0.888}
{"sequenceRecord": "ATPSRYMTFLH [DYNC2H1_Y2872]", "SH2 binding enrichment": 0.757}
{"sequenceRecord": "VKALKYKSMKI [ITGA11_Y1098_L1093V]", "SH2 binding enrichment": 1.29}
{"sequenceRecord": "KVKVEYDMTVP [AHNAK_Y964_G962V]", "SH2 binding enrichment": 0.838}

Param readout = SH2 binding enrichment; param system = Grb2 SH2 (UniProt P62993); param query = VRTGIYHGREP [PIK3CA_Y361_G364R] ; response: value
1.06

Param readout = SH2 binding enrichment; param system = Grb2 SH2 (UniProt P62993); param query = RTCSSYAIEKI [PARP15_Y520] ; response: value
0.938

Param readout = SH2 binding enrichment; param system = Grb2 SH2 (UniProt P62993); param query = KEAALYPHLPP [SQSTM1_Y383] ; response: value
0.763

Param readout = SH2 binding enrichment; param system = Grb2 SH2 (UniProt P62993); param query = SMEMKYLEEKN [ZAP70_Y451_G448E] ; response: value
0.906

Param readout = SH2 binding enrichment; param system = Grb2 SH2 (UniProt P62993); param query = RSRSPYSPVFR [CDK13_Y399_L403F] ; response: value
0.706

Param readout = SH2 binding enrichment; param system = Grb2 SH2 (UniProt P62993); param query = ERWLKYFPNEQ [HS3ST5_Y244_I247N] ; response: value
0.95

Param readout = SH2 binding enrichment; param system = Grb2 SH2 (UniProt P62993); param query = ISTAGYSFPEL [EDAR_Y406_I408F] ; response: value
0.854

====

- Tested on: Fer (mouse)
- assayComment: phosphorylation enrichment, bacterial display (enrichment ratio); higher = better substrate or ligand; peptides without Tyr show the background
phosphorylation enrichment vs 0.6: at or above is TRUE, below is FALSE.

Example entries and their recorded answers appear below.
{"sequenceRecord": "EYFENYIEELK [PARP4_Y218]", "cat": "FALSE"}
{"sequenceRecord": "QPDLLYDHIQP [TRRAP_Y862_F860L]", "cat": "TRUE"}
{"sequenceRecord": "HGAKVYIDPFT [EPHB4_Y590_T587A]", "cat": "TRUE"}

Could you please find out whether VKALKYKSMKI [ITGA11_Y1098_L1093V] has phosphorylation enrichment that meets 0.6 or exceeds it?
FALSE

Could you please find out whether TTICKYSTPME [GUCY2C_Y839] has phosphorylation enrichment that meets 0.6 or exceeds it?
FALSE

Could you please find out whether LFCVHYFHRTF [SRD5A2_Y91] has phosphorylation enrichment that meets 0.6 or exceeds it?
TRUE

Could you please find out whether PLGPLYASSNP [INSR_Y992] has phosphorylation enrichment that meets 0.6 or exceeds it?
TRUE

Could you please find out whether TPSGNYVACGG [GNB1_Y111_A106T] has phosphorylation enrichment that meets 0.6 or exceeds it?
FALSE

====

- testedSystem: Fes (UniProt P07332)
- Sequence (P07332 whole entry, looked up): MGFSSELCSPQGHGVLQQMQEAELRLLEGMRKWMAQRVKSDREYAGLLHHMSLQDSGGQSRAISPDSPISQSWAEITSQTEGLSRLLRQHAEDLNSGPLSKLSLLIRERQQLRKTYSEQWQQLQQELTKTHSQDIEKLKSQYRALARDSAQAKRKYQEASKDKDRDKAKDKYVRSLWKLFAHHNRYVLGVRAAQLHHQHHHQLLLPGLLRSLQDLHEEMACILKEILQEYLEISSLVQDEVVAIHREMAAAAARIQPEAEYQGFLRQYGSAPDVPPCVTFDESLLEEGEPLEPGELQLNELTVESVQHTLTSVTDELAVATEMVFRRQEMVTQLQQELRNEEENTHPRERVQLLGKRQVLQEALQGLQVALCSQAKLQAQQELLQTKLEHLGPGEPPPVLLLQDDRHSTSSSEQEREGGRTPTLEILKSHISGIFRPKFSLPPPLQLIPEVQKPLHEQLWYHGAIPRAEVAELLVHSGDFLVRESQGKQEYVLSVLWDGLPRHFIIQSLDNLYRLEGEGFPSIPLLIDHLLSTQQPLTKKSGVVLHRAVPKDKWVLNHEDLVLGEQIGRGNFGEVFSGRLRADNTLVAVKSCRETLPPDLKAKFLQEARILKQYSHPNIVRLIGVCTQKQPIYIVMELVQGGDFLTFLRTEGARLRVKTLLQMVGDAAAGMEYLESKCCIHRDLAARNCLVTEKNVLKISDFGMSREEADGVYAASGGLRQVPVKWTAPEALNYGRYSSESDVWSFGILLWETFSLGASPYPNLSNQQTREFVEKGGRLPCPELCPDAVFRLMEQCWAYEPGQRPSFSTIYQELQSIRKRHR
- assayComment: phosphorylation enrichment, bacterial display (enrichment ratio); higher = better substrate or ligand; peptides without Tyr show the background
endpoint: phosphorylation enrichment
Would you mind answering with just the numeric figure?

In the examples that follow, each entry is paired with its recorded phosphorylation enrichment.
{"sequenceRecord": "WFKKFYDANYD [MAPRE2_Y158]", "reportedValue": 1.03}
{"sequenceRecord": "ALWYIYSHTRS [ENG_Y614]", "reportedValue": 1.33}
{"sequenceRecord": "VQQVIYATRAL [MYH7_Y422_G425R]", "reportedValue": 0.684}
{"sequenceRecord": "NDHHFYLEGTL [ALDOB_Y223_V222F]", "reportedValue": 1.19}
{"sequenceRecord": "LSNPAYRLLLA [DDR1_Y513]", "reportedValue": 1.15}
{"sequenceRecord": "SLLLSYFLIKW [NUP160_Y773_P768S_YF]", "reportedValue": 1.46}
{"sequenceRecord": "RELGEYPLAEF [ALDH1A3_Y492_A493P_YF]", "reportedValue": 1.14}
{"sequenceRecord": "REVKAYGAGLL [TH_Y419_G414R]", "reportedValue": 0.649}
{"sequenceRecord": "EWLRRYLKNGK [HLA-C_Y195_E197K]", "reportedValue": 0.636}
{"sequenceRecord": "CTSIHYNFMCN [TP53_Y234_T231S_YF]", "reportedValue": 0.918}

Can you look up the measured phosphorylation enrichment of FENGEYIIRQG [PRKG1_Y247_YF] for me?
1.07

Can you look up the measured phosphorylation enrichment of GGQVFHNSEYG [FLT4_Y1333_Y1333H] for me?
0.712

Can you look up the measured phosphorylation enrichment of HKLSYCEYDFE [BTK_Y40_Y40C] for me?
1.76

Can you look up the measured phosphorylation enrichment of AAYNRYDQERF [CDC73_Y293] for me?
0.752

====

- testedSystem: c-Src SH2
- assayComment: SH2 binding enrichment of the phosphorylated peptide, bacterial display (enrichment ratio); higher = better substrate or ligand; peptides without Tyr show the background
Below, each entry is listed with its recorded SH2 binding enrichment.
Would you mind answering with just the numeric figure?

In the examples that follow, each entry is paired with its recorded SH2 binding enrichment.
{"sequenceRecord": "EILLSYLRTGY [TGM1_Y365]", "SH2 binding enrichment": 0.845}
{"sequenceRecord": "IRTDAYVWAMT [RPE65_Y89_R91W]", "SH2 binding enrichment": 0.62}
{"sequenceRecord": "WDSSGYWTPEE [PAPPA2_Y908_C903W]", "SH2 binding enrichment": 36.9}
{"sequenceRecord": "LEKRAYICAHP [ACAD9_Y611]", "SH2 binding enrichment": 0.442}
{"sequenceRecord": "GAVGNYSGGLA [MGMT_Y158]", "SH2 binding enrichment": 0.367}
{"sequenceRecord": "GDFFCYLAEVA [YWHAG_Y133_R132C_YF]", "SH2 binding enrichment": 0.491}
{"sequenceRecord": "KPLMPCMRYSR [SMARCE1_Y73_Y73C]", "SH2 binding enrichment": 0.485}
{"sequenceRecord": "SGPRRYTIATL [TTR_Y125_A129T]", "SH2 binding enrichment": 0.539}

Can you look up the measured SH2 binding enrichment of HNLDYYKKTTN [FGFR3_Y648] for me?
0.591

Can you look up the measured SH2 binding enrichment of IPPRRYFCSGV [STAMBP_Y36_R38C] for me?
0.416

Can you look up the measured SH2 binding enrichment of NVADHYGVFKP [ATP6V0D2_Y271_YF] for me?
0.717

Can you look up the measured SH2 binding enrichment of DRLASYLDKAR [KRT14_Y129_V133A] for me?
0.419

Can you look up the measured SH2 binding enrichment of TKVVHYRKWIK [KLK2_Y249] for me?
0.558

Can you look up the measured SH2 binding enrichment of VTRANYFIRDE [GNAS_Y339_K338N] for me?
0.434

====

- testedSystem: EPHB2 (UniProt P29323)
- Sequence (P29323 whole entry, looked up): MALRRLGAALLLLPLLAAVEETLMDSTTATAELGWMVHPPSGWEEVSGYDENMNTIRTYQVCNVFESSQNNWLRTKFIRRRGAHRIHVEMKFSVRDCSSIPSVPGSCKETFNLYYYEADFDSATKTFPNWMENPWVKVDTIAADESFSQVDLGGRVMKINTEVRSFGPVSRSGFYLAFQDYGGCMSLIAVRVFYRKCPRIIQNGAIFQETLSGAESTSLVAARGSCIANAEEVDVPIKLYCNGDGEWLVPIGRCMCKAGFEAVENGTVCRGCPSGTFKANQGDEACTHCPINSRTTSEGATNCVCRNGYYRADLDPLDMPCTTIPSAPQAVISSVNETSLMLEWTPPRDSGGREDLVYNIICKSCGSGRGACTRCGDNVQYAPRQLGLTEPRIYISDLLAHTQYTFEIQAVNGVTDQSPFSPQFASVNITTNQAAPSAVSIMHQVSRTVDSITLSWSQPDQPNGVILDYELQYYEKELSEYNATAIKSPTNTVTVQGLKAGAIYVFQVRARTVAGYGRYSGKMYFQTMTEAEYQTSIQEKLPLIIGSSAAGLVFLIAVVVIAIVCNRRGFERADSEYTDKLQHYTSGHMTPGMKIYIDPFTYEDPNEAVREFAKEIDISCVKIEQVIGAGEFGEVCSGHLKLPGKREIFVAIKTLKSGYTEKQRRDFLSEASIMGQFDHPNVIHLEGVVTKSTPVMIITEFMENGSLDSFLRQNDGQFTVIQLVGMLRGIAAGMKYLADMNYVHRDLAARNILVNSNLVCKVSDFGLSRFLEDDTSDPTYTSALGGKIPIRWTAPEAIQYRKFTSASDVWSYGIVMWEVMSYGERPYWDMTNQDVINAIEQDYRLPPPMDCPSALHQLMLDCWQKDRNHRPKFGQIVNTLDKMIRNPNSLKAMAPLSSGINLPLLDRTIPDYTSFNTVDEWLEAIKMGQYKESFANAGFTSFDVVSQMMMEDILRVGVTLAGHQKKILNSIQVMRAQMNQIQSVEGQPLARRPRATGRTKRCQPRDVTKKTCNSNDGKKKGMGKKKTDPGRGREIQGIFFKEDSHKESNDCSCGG
- assayComment: phosphorylation enrichment, bacterial display (enrichment ratio); higher = better substrate or ligand; peptides without Tyr show the background
endpoint: phosphorylation enrichment
Would you mind answering with just the numeric figure?

{"sequenceRecord": "GSSEGYLHMVH [NIPBL_Y247_D246G]", "phosphorylation enrichment": 0.427}

Can you look up the measured phosphorylation enrichment of HNLDYYKKTTN [FGFR3_Y648] for me?
0.59

Can you look up the measured phosphorylation enrichment of IEENGYNTFAS [FGF10_Y161_YF] for me?
0.526

Can you look up the measured phosphorylation enrichment of KRNSLYSFSDH [CCDC82_Y331_Q327R] for me?
0.379

Can you look up the measured phosphorylation enrichment of KLKEKYQKDIA [HMGB1_Y155_E156Q] for me?
0.588

Can you look up the measured phosphorylation enrichment of LQIPMYEVQWK [KIT_Y553_K550I] for me?
24.1

Can you look up the measured phosphorylation enrichment of AEEEIYGEFEA [Src_opt_1995] for me?
0.75
